STUDY_SYSTEM: T1, Rad4-Rad23 WT (no thrombin cleavage) (UniProt P14736;P32628 101-632;1-77+230-398, internal_change)
T1 sequence 1: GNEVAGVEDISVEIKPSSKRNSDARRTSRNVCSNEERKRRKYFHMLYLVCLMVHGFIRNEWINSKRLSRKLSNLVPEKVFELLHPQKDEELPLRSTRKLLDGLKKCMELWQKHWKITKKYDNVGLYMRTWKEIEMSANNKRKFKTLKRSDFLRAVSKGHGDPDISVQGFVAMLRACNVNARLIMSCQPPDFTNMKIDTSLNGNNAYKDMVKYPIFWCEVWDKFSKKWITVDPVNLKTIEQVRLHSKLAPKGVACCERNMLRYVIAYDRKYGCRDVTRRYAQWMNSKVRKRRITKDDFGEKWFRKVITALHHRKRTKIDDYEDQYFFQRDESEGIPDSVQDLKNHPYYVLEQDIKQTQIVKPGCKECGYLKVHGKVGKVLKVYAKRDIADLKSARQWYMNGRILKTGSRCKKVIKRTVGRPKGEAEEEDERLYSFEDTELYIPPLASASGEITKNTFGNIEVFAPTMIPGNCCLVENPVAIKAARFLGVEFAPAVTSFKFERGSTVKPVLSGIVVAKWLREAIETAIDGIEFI
T1 sequence 2: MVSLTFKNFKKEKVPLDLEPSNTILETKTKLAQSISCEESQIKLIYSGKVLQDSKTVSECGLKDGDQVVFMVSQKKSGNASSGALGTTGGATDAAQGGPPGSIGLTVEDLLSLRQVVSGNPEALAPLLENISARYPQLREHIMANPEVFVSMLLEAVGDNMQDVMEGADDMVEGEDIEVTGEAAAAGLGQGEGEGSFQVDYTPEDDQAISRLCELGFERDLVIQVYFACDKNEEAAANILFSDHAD
EXPERIMENTAL_PROTOCOL: competitive EMSA; apparent Ks; 1000 nM cold CH7_NX competitor; EMSA: 5 mM BTP-HCl pH 6.8, 75 mM NaCl, 5 mM DTT, 5% glycerol, 0.74 mM CHAPS, 500 ug/ml BSA, room temperature 20 min, 5 nM labeled DNA, 1000 nM cold CH7_NX
CONDITION_CONTEXT: protein: recombinant; tags: N-terminal His tag on Rad4; copies: 1;1; label: 32P; 3-bp CCC/CCC mismatch; 5' overhang 1 nt at both ends

{"columns": ["BINDER", "Kd"],
 "data": [
  ["CCC/CCC mismatched (CH10_NX) (dsDNA) DNA 1: TTGACTCGACATCCCCCGCTACAA DNA 2: ATTGTAGCCCCGGATGTCGAGTCA", "~60 nM"]
]}
